Assay: Cytotoxicity against african green monkey Vero cells by non-radioactive cell proliferation assay
Assay type: cell-based
Settings: chlorocebus sabaeus, Vero cells
Entries annotated with measured CC50

Here are 2 compounds together with their reported answers.
INSERT INTO results (smiles_input, reported_result) VALUES
  ('CCCCCCCCCCSc1ncnc2c1ncn2CC(=O)OC(C)(C)C', '> 10 µg/mL'),
  ('CCCCCCCCCCSc1ncnc2c1ncn2CC(=O)OCC', '> 62.5 µg/mL');

Next item in the queue.
Request the reported CC50 associated with CCCCCCCCCCCCSc1ncnc2c1ncn2CC(=O)OCC > 10 µg/mL
